Target: human 5-HT1A receptor (Homo sapiens (Human))
Sequence (P08908 whole entry): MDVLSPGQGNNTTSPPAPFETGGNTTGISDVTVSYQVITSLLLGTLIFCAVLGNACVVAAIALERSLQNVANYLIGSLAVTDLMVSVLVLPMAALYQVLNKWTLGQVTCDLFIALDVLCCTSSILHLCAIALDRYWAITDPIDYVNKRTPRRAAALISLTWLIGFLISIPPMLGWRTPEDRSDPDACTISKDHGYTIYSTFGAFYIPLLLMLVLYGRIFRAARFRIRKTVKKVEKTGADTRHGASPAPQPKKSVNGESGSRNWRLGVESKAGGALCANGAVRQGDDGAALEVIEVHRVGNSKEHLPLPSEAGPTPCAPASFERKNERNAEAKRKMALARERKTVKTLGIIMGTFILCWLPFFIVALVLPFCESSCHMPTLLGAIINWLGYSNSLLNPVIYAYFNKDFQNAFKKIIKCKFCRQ
Test: Test 2: agonist activity for human 5-HT1A receptor ([35S]GTPγS binding)
Settings: [35S]GTPγS binding; concentration at which half the activity of Emax was obtained
measurement_kind: EC50 (nM)

>>> number("Cn1nc2c(c1Br)C(=O)N(CCN1CCC(c3noc4ccccc34)CC1)CC2")
4.42
>>> number("COc1cc2c(cn1)C(=O)N(CCN1CCC(c3noc4ccccc34)CC1)CC2")
2.87
>>> number("Cn1ncc2c1CCCN(CCN1CCN(c3nsc4ccccc34)CC1)C2=O")
1.8
>>> number("Cn1ccc2c1CCCN(CCN1CCC(c3noc4ccccc34)CC1)C2=O")
5.8
>>> number("O=C1c2nc(F)ccc2CCN1CCN1CCC(c2noc3ccccc23)CC1")
82.6
>>> number("N#Cc1cc2c(cn1)C(=O)N(CCN1CCN(c3nsc4ccccc34)CC1)CC2")
1.1
>>> number("O=C1c2ncccc2CCN1CCN1CCC(c2noc3c(F)cccc23)CC1")
2300
>>> number("CC1(CCN2CCN(c3noc4ccccc34)CC2)CCc2cccnc2C1=O (stereo not drawn)")
55.1
>>> number("O=C1c2cccnc2CCN1CCN1CCC(c2noc3ccccc23)CC1")
35.9

###

Target: UniProt Q12809
Test: Test 6-2: inhibitory activity for hERG channel (auto patch clamp, Qube)
Type: cell-based
Settings: Test 6-2, hERG-CHO cells, whole cell patch clamp; read-out: hERG inhibition IC50
Procedure: Extracellular fluid: 2 mmol/L CaCl2, 1 mmol/L MgCl2, 10 mmol/L HEPES, 4 mmol/L KCl, 145 mmol/L NaCl, 10 mmol/L Glucose (Measurement of Current Value and Data Analysis) The cell suspension, the extracellular fluid, the intracellular fluid, and the measurement plate were set in the auto patch clamp system, and hERG current was measured by whole cell patch clamp method. […] Each pulse interval was 15 seconds. […]
pIC50: −log10 of the molar value.
measurement_kind: pIC50

>>> number("Cc1nn(C)c2c1C(=O)N(CCN1CCC(c3noc4ccccc34)CC1)CCC2")
5.74

###

Biological target: hERG channel (Homo sapiens (Human), UniProt Q12809)
Sequence (Q12809 whole entry): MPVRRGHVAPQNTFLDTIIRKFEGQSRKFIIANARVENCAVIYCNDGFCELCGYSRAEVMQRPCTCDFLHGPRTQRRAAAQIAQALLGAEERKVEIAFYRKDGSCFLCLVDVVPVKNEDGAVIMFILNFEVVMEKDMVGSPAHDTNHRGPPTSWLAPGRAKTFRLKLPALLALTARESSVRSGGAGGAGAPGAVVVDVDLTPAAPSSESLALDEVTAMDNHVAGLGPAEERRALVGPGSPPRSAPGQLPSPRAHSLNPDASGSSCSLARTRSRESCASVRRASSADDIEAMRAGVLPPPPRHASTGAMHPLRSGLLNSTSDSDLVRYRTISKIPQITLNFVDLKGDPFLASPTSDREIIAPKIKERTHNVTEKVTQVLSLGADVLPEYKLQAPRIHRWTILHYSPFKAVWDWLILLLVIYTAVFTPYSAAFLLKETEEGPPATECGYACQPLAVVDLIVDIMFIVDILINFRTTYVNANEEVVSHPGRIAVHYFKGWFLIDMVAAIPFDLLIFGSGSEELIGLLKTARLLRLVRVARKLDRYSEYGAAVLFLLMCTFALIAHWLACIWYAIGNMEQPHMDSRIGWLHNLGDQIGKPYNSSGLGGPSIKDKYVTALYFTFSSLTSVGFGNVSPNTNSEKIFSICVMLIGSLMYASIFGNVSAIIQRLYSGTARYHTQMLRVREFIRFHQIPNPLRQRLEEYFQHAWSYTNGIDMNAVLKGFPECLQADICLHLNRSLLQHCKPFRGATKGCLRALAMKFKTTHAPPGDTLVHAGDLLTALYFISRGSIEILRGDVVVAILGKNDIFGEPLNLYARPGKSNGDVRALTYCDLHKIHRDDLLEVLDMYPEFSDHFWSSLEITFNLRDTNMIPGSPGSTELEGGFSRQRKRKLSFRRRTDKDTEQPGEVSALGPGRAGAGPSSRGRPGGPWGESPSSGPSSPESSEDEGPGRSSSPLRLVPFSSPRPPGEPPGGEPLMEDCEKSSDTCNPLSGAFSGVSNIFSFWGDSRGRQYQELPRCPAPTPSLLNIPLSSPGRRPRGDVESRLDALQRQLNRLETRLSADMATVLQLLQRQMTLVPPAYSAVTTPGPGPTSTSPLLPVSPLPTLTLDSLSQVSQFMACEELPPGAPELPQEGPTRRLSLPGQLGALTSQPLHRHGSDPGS
Assay: Test 6-1: inhibitory activity for hERG channel (auto patch clamp, Qpatch)
Type: cell-based
Settings: whole cell auto patch clamp, hERG-CHO cells; read-out: hERG inhibition IC50
pIC50: −log10 of the molar value.
measurement_kind: pIC50

>>> number("O=C1c2ncccc2CCN1CCN1CCN(c2nsc3cc(F)ccc23)CC1")
5.89
>>> number("O=C1c2ncoc2CCN1CCN1CCC(c2noc3ccccc23)CC1")
5.80
>>> number("Cn1ncc2c1CCCN(CCN1CCN(c3nsc4ccccc34)CC1)C2=O")
5.11
>>> number("O=C1c2cn[nH]c2CCCN1CCN1CCC(c2noc3ccccc23)CC1")
5.59
>>> number("O=C1c2cnc(Br)cc2CCN1CCN1CCN(c2nsc3ccccc23)CC1")
5.82
>>> number("Cn1ccc2c1CCCN(CCN1CCC(c3noc4ccccc34)CC1)C2=O")
5.85
>>> number("Cn1cc2c(n1)CCN(CCN1CCN(c3nsc4ccccc34)CC1)C2=O")
5.49
>>> number("Cc1cc2c(C3CCN(CCN4CCc5cccnc5C4=O)CC3)noc2cc1F")
5.66
>>> number("Cc1nc(C)c2c(n1)CCN(CCN1CCC(c3noc4ccccc34)CC1)C2=O")
5.42
>>> number("Cn1ncc2c1CCC(CCN1CCC(c3noc4ccccc34)CC1)C2=O (stereo not shown)")
5.85
>>> number("Cn1ccc2c1CCCN(CCN1CCC(c3noc4ccccc34)C1)C2=O (stereo not shown)")
5.46
>>> number("O=C1c2ncccc2CCC1CCN1CCN(c2noc3ccccc23)CC1 (stereo not shown)")
5.72
>>> number("Cn1cc2c(n1)C(=O)N(CCN1CCC(c3noc4ccccc34)CC1)CC2")
5.68
>>> number("COc1cc2c(cn1)CCN(CCN1CCN(c3nsc4ccccc34)CC1)C2=O")
5.28
>>> number("O=c1c2ncccc2ccn1CCN1CCN(c2nsc3ccccc23)CC1")
5.70
>>> number("COc1ncc2c(n1)CCN(CCN1CCC(c3noc4ccccc34)CC1)C2=O")
6.00
>>> number("Cc1ncc2c(=O)n(CCN3CCC(c4noc5ccccc45)CC3)ccc2n1")
5.31
>>> number("Cc1cc2ccn(CCN3CCN(c4noc5ccccc45)CC3)c(=O)c2cn1")
5.15
